Test system: L1210 leukemia ip in BDF1 mice, survival T/C
method: NCI In Vivo Anticancer Drug Screen. Data for tumor model L1210 Leukemia (intraperitoneal) in B6D2F1 (BDF1) mice
reported.conditions: endpoint: mean survival time; dose: 400.0 mg/kg/injection; schedule: Q01DX001 (ip); vehicle: saline; higher = longer survival
Toxic doses and inconclusive results are not listed. Square brackets hold non-standard residues; d marks the D form. Peptide text beside a SMILES is read from it. * marks the point of attachment. ξ: configuration not given here. Arg(NO2) = N=C(NCCC[CH](N)C(=O)O)N[N+](=O)[O-]; Cbz = O=C(OCc1ccccc1)*; ξD = NC(CC(=O)O)C(=O)O
Consider the following compounds and their measured T/C readings.

| compound | T/C |
| --- | --- |
| COc1ccc(OC)c2c(C)c(C)[nH]c12 | 106 % of control |
| CCCCCCN(CCCCCC)CCCCCC | 100 % of control |
| S=C(Nc1ccccc1)NC1CC2C=CC1CC2 (stereo not drawn) | 113 % of control |
| OC(C(c1ccccc1)N1CCOCC1)C(O)(c1ccccc1)c1ccccc1 (stereo not drawn) | 97 % of control |
| CCCCC[Si](C)(C)C | 105 % of control |
| CCOC(=O)/C(C#N)=C1\C=C(NCc2ccccc2)CCC1 | 92 % of control |
| COC(=O)C(CCCN=C(N)N[N+](=O)[O-])NC(=O)C(Cc1ccccc1)NC(=O)C1CCCN1C(=O)OCc1ccccc1 (stereo not drawn) (Cbz-Pro-Phe-[Arg(NO2)]-OMe; configuration not given here) | 92 % of control |
| O=c1ccn(Cc2ccccc2)c(SCc2ccccc2)n1 | 105 % of control |
| O=[N+]([O-])c1ncn(C2OC(CO)C(O)C2O)c1Br (stereo not drawn) | 104 % of control |
| Cc1nc2nc(N)nc(N)c2nc1C | 100 % of control |
| O=[N+]([O-])c1cc2c(cc1Br)C1C(C3C2C(Cl)(Cl)C(Cl)=C(Cl)C3(Cl)Cl)C(Cl)(Cl)C(Cl)=C(Cl)C1(Cl)Cl (stereo not drawn) | 94 % of control |
| CCCCCCCCCC(F)CCCCCCCC(=O)O (stereo not drawn) (tested in a mixture with another compound) | 95 % of control |
| CC1(C)OC(=O)C(C#N)C1c1ccccc1 (stereo not drawn) | 96 % of control |
| O=c1[nH]cc(/C=N\Nc2ccccc2)c(=O)[nH]1 | 101 % of control |
| ClC1CCCCCCCCC1 | 92 % of control |
| CC(C)n1cc2c(N)ncnc2n1 | 100 % of control |
| CCCCNC(=O)n1ncc2cc([N+](=O)[O-])c([N+](=O)[O-])cc21 | 101 % of control |
| CNCCc1ccc(O)cc1 | 104 % of control |
| CC(=O)OCC1OC(OC(C)=O)C(NS(=O)(=O)c2ccc(C)cc2)C(OC(C)=O)C1OC(C)=O (stereo not drawn) | 102 % of control |
| NCC(=O)NC(CC(=O)O)C(=O)O (stereo not drawn) (H-Gly-[ξD]-OH) | 97 % of control |
| Cc1cc(/C=C\[N+](=O)[O-])c(C)c2c1oc1ccccc12 | 88 % of control |
| C1C2C1C1C3C2C2C4C5CC5C5C2C1C1C5C4C31 (stereo not drawn) | 106 % of control |
| CCC(=O)CCC1CCCCC1 | 91 % of control |

Origin of values: PubChem BioAssay AID248
